Quick reference for pKi among some molecules
molecular target: PIN1-CD (catalytic peptidyl-prolyl isomerase domain, devoid of the PIN1 WW domain) (Homo sapiens)
Sequence (Q13526 52-163 limits assumed): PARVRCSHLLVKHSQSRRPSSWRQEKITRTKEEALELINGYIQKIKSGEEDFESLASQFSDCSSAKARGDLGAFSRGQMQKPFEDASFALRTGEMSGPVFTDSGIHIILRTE
pKi: −log10 of the molar value.

- MOLECULE: "O=C(OC(CCCc1ccccc1)CCCc1ccccc1)[C@@H]1CCCCN1C(=O)N[C@@H](COP(=O)(O)O)Cc1cccc(F)c1"
  pKi: "> 6.00"
- MOLECULE: "O=C(O)[C@@H]1CCCCN1S(=O)(=O)N[C@@H](COP(=O)(O)O)Cc1ccccc1"
  pKi: "> 5.00"
- MOLECULE: "O=C(N[C@H](CCc1ccccc1)COP(=O)(O)O)c1ccc2ccccc2c1"
  pKi: "> 5.00"
- MOLECULE: "O=C(N[C@H](Cc1cccc(F)c1)CP(=O)(O)O)c1cc2ccccc2s1"
  pKi: "> 6.00"
